Measured kon, listed per entry.
Target: T1, rhNR10 (recombinant human NR10) (human, UniProt Q8NI17 20-519, limits assumed)
T1 construct: also called IL-31 receptor; IL31RA
T1 sequence: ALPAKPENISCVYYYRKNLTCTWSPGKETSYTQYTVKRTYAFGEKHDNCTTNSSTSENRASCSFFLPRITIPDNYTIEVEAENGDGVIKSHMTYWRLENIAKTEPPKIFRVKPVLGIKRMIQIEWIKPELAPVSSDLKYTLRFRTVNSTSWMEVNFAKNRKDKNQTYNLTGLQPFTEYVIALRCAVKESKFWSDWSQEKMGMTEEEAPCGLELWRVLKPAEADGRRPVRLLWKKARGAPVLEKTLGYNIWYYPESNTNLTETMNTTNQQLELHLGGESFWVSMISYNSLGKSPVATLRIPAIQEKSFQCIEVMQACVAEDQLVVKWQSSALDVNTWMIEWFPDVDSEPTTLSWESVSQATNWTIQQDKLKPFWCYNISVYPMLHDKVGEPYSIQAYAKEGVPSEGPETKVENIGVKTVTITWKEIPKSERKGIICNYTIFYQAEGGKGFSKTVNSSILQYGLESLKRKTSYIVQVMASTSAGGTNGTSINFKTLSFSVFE
Assay: SPR, Biacore T100; antibody captured on Protein A, rhNR10 as analyte
measured quantity: kon (M⁻¹ s⁻¹)

INSERT INTO measurements (binder, measured_quantity, value_measured) VALUES
  ('H97L50 (H97-M58 / L50) (antibody, V domains shown) VH: QVQLVQSGAEVKKPGASVKVSCKASGYTFTGYIMNWVRQAPGQGLEWMGLINPYNGGTSYNQQFQDRVTITADESTSTAYMELSSLRSEDTAVYYCARDGYDDGPYTLETWGQGTLVTVSS VL: DIQMTQSPSSLSASVGDRVTITCQASEDIYSFLAWYQQKPGKAPKLLIYNAQTEAQGVPSRFSGSGSGTDFTLTISSLQPEDFATYYCQHHYDSPLTFGGGTKVEIKR', 'kon', 360000),
  ('H71L17 (H71-M58 / L17) (antibody, V domains shown) VH: QVQLVQSGAEVKKPGASVKVSCKASGYTFTGYAMNWVRQAPGQGLEWMGLINPYNGGTDYNPQFQGRVTITADESTSTAYMELSSLRSEDTAVYYCARDGYDDGPYTLETWGQGTLVTVSS VL: DIQMTQSPSSLSASVGDRVTITCQASEDIYSFVAWYQQKPGKAPKLLIYNAQTEAQGVPSRFSGSGSGTDFTLTISSLQPEDFATYYCQHHYDSPLTFGGGTKVEIKR', 'kon', 370000),
  ('H46L17 (H46-M58 / L17) (antibody, V domains shown) VH: QVQLVQSGAEVKKPGASVKVSCKASGYTFTGYAMNWVRQAPGQGLEWMGLINPYNGGTDYNPQFQDRVTITADKSTSTAYMELSSLRSEDTAVYYCARDGYDDGPYTLETWGQGTLVTVSS VL: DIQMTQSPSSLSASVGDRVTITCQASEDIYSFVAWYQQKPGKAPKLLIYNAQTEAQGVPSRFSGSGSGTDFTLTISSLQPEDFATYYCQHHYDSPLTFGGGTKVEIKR', 'kon', 290000),
  ('H34L17 (H34-M58 / L17) (antibody, V domains shown) VH: QVQLVQSGAEVKKPGASVKVSCKASGYTFTGYAMNWVRQAPGQGLEWMGLINPYNGGTDYNPQFQDRVTITADESTSTAYMELSSLRSEDTAVYYCARDGYDDGPYTLETWGQGTLVTVSS VL: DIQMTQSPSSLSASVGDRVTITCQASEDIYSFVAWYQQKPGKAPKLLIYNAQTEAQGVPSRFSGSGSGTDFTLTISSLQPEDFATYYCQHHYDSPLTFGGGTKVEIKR', 'kon', 340000),
  ('H98L50 (H98-M58 / L50) (antibody, V domains shown) VH: QVQLVQSGAEVKKPGASVKVSCKASGYTFTGYIMNWVRQAPGQGLEWMGLINPYNGGTSYNQQFQDRVTITADKSTSTAYMELSSLRSEDTAVYYCARDGYDDGPYTLETWGQGTLVTVSS VL: DIQMTQSPSSLSASVGDRVTITCQASEDIYSFLAWYQQKPGKAPKLLIYNAQTEAQGVPSRFSGSGSGTDFTLTISSLQPEDFATYYCQHHYDSPLTFGGGTKVEIKR', 'kon', 290000);

Measured values drawn from patent US20110129459A1 for this set.
